target: NAMPT (human, recombinant, C-terminally His-tagged) (Homo sapiens); experiment: Time-Resolved Fluorescence Resonance Energy Transfer (TR-FRET) Binding Assay of NAMPT; conditions: without substrates; 6.8 nM NAMPT, 200 nM probe, 3 hours equilibration
measurementType: IC50 (µM)

Please review the following examples before continuing.
{"columns": ["compound", "experimentalSystem", "testResult"],
 "data": [
  ["O=C(NCc1ccc2nccn2c1)c1cnc(N(C[C@H]2CCCO2)C(=O)C2CCOC2)s1 (some centres unmarked)", "NAMPT (human, recombinant, C-terminally His-tagged) (Homo sapiens)", 0.261],
  ["CC[C@H](C)C(=O)N1CCC(Oc2ccc(NC(=O)NCc3ccn4ccnc4c3)cc2)CC1", "NAMPT (human, recombinant, C-terminally His-tagged) (Homo sapiens)", 0.138],
  ["CC(C)OCC(=O)Nc1ccc(NC(=O)NCc2ccn3ccnc3c2)cc1", "NAMPT (human, recombinant, C-terminally His-tagged) (Homo sapiens)", 0.0765]
]}

(I) CC(C)Cn1cc(-c2ccc(C(=O)NCc3ccn4ccnc4c3)cc2)cn1
(II) O=C(NCc1ccn2ccnc2c1)c1ccc(C2CCN(C(=O)c3ccc(Cl)cc3)C2)s1 (centres unmarked)
Input: Given I and given II , which shows the smaller recorded IC50? Lab log: write the label of the selected item as the result.
Output: II

---

target: NAMPT (Homo sapiens, UniProt P43490)
Sequence (P43490 whole entry): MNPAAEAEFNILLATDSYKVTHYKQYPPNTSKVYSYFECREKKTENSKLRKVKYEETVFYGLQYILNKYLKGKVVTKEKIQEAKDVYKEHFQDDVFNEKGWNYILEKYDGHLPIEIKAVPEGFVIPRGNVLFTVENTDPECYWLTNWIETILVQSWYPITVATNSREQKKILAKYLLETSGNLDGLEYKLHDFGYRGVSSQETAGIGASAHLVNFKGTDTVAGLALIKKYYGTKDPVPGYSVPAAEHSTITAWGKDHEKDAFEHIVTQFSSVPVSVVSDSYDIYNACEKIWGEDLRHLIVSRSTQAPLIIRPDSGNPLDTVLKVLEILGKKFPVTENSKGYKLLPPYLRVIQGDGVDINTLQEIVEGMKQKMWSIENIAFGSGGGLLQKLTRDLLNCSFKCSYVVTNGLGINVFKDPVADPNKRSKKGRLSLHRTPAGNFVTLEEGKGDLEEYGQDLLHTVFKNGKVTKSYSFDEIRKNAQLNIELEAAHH
measurementType: IC50 (nM)

The examples below pair each entry with its known result.
{"columns": ["molecule", "unitOfMeasurement", "IC50"],
 "data": [
  ["O=C(CC1CCCO1)Nc1ccc(NC(=O)NCc2ccn3ccnc3c2)cc1 (stereo not drawn)", "nM", 0.264],
  ["O=C(NCc1ccn2ccnc2c1)Nc1ccc(C2CCN(C(=O)c3ccccc3)CC2)cc1", "nM", 0.398],
  ["O=C(NCc1ccn2ccnc2c1)c1ccc(C2CCN(C(=O)c3ccc(C(F)(F)F)cc3)CC2)cc1", "nM", 1.63],
  ["Cn1ccc(C(=O)N2CC(c3ccc(C(=O)NCc4ccn5ccnc5c4)cc3)C2)n1", "nM", 0.532],
  ["Cc1cc(CC(=O)N(CC2CCCO2)c2ncc(C(=O)NCc3ccc4nccn4c3)s2)nn1C (stereo not drawn)", "nM", 4.57]
]}

(I) O=C(NCc1ccn2ccnc2c1)c1ccc(-c2cnn(CC3CCCCO3)c2)s1 (stereo not drawn)
(II) COCCn1cc(-c2ccc(NC(=O)NCc3ccn4ccnc4c3)cc2)cn1
Input: Consider I and II . Which of these has its IC50 at a higher number? Answer with the label corresponding to your selection.
Output: II
(II: 0.697 nM, I: 0.275 nM)

---

target: NAMPT (human, recombinant, C-terminally His-tagged) (Homo sapiens, UniProt P43490); experiment: Time-Resolved Fluorescence Resonance Energy Transfer (TR-FRET) Binding Assay of NAMPT; conditions: without substrates; 6.8 nM NAMPT, 200 nM probe, 3 hours equilibration
measurementType: IC50 (µM)

{"columns": ["compound", "experimentalSystem", "IC50, µM"],
 "data": [
  ["O=C(NCc1ccn2ccnc2c1)Nc1ccc(OC2CCN(C(=O)CC3CC3)CC2)cc1", "NAMPT (human, recombinant, C-terminally His-tagged) (Homo sapiens, UniProt P43490)", 0.156]
]}

(1) CC(C)C(=O)N1CCC(Oc2ccc(NC(=O)NCc3ccn4ccnc4c3)cc2)CC1
(2) O=C(NCc1ccn2ccnc2c1)c1ccc(C2CCN(S(=O)(=O)C3CC3)CC2)cc1
(3) CCc1c(-c2ccc(C(=O)NCc3ccn4ccnc4c3)s2)cnn1CC1CCCCC1
(4) O=C(NCc1ccn2ccnc2c1)c1ccc(C2(O)CN(C(=O)c3ccccc3)C2)s1
Input: // ranking: key=IC50, reverse=True Answer by writing out the labels in the requested order.
Output: 2, 1, 3, 4
(2: 0.481 µM, 1: 0.301 µM, 3: 0.0272 µM, 4: 0.0126 µM)
